From: ChEMBL document CHEMBL1909046

run_description: DRUGMATRIX: Calcium Channel Type L, Dihydropyridine radioligand binding (ligand: [3H] Nitrendipine)
Type: cell membranes, Rattus norvegicus, Wistar, Cerebral cortex, Membrane
applied_conditions: Not Active = under 50% inhibition at 10 µM
quantity_measured: Ki

{"molecule": "CC(=O)O[C@]1(C(C)=O)CC[C@H]2[C@@H]3C=C(Cl)C4=CC(=O)[C@@H]5C[C@@H]5[C@]4(C)[C@H]3CC[C@@]21C [CYPROTERONE ACETATE]", "result": "Not Active"}
{"molecule": "CC[C@H](C)C(=O)O[C@H]1C[C@H](O)C=C2C=C[C@H](C)[C@H](CC[C@@H](O)C[C@@H](O)CC(=O)O)[C@H]21 [PRAVASTATIN]", "result": "Not Active"}
{"molecule": "CC(C)(C)c1ccc(S(=O)(=O)/C=C/C#N)cc1 [BAY-11-7085]", "result": "Not Active"}

###

tested_system: Adenosine receptor A3 (Homo sapiens); also: in other assays of this panel Not Active means under 50% inhibition at 10 µM;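 also: radioligand binding assay with AB-MECA serving as the labeled ligand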
Sequence (P0DMS8 whole entry): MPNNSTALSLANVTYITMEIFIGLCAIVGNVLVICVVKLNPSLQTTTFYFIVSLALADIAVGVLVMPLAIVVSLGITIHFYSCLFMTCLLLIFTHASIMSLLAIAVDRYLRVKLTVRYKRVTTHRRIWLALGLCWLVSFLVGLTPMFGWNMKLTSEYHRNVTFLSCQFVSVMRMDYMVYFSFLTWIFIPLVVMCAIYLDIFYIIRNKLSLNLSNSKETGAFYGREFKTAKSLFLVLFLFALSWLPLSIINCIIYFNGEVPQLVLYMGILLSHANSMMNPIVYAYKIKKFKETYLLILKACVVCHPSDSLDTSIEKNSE
Type: cell membranes, CHO-K1, Membrane
applied_conditions: cho-k1
quantity_measured: IC50

{"substance": "COBALT(II) ACETYLACETONATE", "result": "Not Active"}
{"substance": "INSULIN HUMAN", "result": "Not Active"}
{"substance": "POLYVINYL ALCOHOL", "result": "Not Active"}
{"substance": "STANNOUS FLUORIDE", "result": "Not Active"}

###

tested_system: Muscarinic acetylcholine receptor M4 (Homo sapiens); also: in other assays of this panel Not Active means under 50% inhibition at 10 µM
Sequence (P08173 whole entry): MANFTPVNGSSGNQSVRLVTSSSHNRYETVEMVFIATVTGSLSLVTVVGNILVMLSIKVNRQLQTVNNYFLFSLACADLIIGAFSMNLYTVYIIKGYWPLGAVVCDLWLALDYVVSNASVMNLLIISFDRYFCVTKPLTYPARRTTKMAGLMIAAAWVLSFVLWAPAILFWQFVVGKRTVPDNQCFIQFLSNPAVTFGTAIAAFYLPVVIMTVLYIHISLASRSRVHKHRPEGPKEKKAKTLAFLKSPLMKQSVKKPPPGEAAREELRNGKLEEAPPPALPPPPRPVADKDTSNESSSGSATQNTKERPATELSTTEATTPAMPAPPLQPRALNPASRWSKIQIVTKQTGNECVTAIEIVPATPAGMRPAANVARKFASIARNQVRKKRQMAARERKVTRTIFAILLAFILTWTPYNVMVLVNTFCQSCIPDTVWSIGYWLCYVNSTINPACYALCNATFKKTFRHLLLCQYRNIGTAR
Type: cell membranes, CHO-K1, Membrane
applied_conditions: read-out: IC50
quantity_measured: pIC50
Please express pIC50 as -log10 of the molar concentration.

Q) Value wanted: pIC50 (Muscarinic acetylcholine receptor M4 (Homo sapiens)) of entry OCCN1CCN(CCCN2c3ccccc3Sc3ccc(C(F)(F)F)cc32)CC1 [FLUPHENAZINE]
A) 5.46

###

tested_system: Matrix metalloproteinase-9 (Homo sapiens); also: in other assays of this panel Not Active means under 50% inhibition at 10 µM
Sequence (P14780 whole entry): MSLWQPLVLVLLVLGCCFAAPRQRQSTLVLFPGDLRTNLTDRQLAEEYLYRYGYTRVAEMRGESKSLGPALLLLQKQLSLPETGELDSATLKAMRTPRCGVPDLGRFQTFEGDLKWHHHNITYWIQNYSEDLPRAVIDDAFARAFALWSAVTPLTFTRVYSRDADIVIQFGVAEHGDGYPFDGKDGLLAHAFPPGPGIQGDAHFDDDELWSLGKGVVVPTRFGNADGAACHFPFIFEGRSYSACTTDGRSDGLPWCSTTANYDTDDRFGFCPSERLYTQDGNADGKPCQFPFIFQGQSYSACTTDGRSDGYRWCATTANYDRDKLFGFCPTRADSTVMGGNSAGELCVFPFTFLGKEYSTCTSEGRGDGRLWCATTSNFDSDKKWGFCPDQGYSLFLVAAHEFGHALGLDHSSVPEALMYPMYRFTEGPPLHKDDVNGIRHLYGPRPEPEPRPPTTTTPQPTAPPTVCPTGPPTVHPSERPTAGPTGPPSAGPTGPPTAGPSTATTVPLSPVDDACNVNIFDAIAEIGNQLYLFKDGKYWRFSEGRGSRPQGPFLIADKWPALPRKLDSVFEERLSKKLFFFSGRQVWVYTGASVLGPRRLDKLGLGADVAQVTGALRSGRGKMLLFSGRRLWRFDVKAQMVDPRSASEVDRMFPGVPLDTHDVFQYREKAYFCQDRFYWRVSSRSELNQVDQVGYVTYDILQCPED
run_description: biochemical
Format: cell-based
quantity_measured: IC50

The cases that follow already have their IC50 on record.
{"molecule": "Cc1cn([C@H]2C[C@H](N=[N+]=[N-])[C@@H](CO)O2)c(=O)[nH]c1=O [ZIDOVUDINE]", "IC50": "Not Active"}
{"molecule": "Cc1c(N(C)CS(=O)(=O)[O-])c(=O)n(-c2ccccc2)n1C.[Na+] [DIPYRONE SODIUM]", "IC50": "Not Active"}
{"molecule": "CO[C@@]1(NC(=O)CSCC#N)C(=O)N2C(C(=O)O)=C(CSc3nnnn3C)CS[C@@H]21 [CEFMETAZOLE]", "IC50": "Not Active"}
{"molecule": "[N-]=[N+]=CC(=O)OC[C@H](N)C(=O)O [AZASERINE]", "IC50": "Not Active"}
{"molecule": "Nc1ccc(S(=O)(=O)Nc2ncccn2)cc1 [SULFADIAZINE]", "IC50": "Not Active"}

Let us move to another entry and its IC50.
Q) Please state recorded IC50 (tested on Matrix metalloproteinase-9 (Homo sapiens)) of CCN(CC)CC#CCOC(=O)C(O)(c1ccccc1)C1CCCCC1 (centres undefined) [OXYBUTYNIN]; also: in other assays of this panel Not Active means under 50% inhibition at 10 µM;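 also: inhibition of isolated MMP-9 enzyme activity toward a synthetic peptide substrate, from the DrugMatrix protease screening panel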
A) Not Active

###

tested_system: Cytochrome P450 2C9 (Homo sapiens); also: in other assays of this panel Not Active means under 50% inhibition at 10 µM
Sequence (P11712 whole entry): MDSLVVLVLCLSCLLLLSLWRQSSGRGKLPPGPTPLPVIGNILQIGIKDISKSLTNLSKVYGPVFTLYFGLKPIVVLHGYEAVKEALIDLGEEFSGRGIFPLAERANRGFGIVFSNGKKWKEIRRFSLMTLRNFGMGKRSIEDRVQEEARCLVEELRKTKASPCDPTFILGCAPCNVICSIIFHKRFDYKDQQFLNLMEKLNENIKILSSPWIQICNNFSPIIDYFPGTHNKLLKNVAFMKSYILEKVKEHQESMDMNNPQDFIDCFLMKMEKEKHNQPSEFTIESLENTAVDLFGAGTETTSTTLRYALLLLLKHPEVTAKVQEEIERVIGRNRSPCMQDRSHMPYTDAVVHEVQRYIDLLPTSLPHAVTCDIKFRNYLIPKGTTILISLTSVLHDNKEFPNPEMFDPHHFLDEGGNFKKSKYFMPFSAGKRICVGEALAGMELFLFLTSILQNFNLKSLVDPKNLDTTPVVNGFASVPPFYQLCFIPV
applied_conditions: bti-tn-5b1-4

{"mol": "CC(C)(Sc1cc(C(C)(C)C)c(O)c(C(C)(C)C)c1)Sc1cc(C(C)(C)C)c(O)c(C(C)(C)C)c1", "Ki": "Not Active"}
{"mol": "CC(C)C[C@H]1C(=O)N2CCC[C@H]2[C@]2(O)O[C@](NC(=O)[C@@H]3C=C4c5cccc6[nH]c(Br)c(c56)C[C@H]4N(C)C3)(C(C)C)C(=O)N12", "Ki": "Not Active"}
{"mol": "CO[C@H]1[C@@H](O)[C@H](N)[C@@H](O[C@H]2O[C@H]([C@H](C)N)CC[C@H]2N)[C@H](O)[C@@H]1N(C)C(=O)CN", "Ki": "Not Active"}

###

tested_system: Platelet-activating factor receptor (Homo sapiens); also: in other assays of this panel Not Active means under 50% inhibition at 10 µM
Sequence (P25105 whole entry): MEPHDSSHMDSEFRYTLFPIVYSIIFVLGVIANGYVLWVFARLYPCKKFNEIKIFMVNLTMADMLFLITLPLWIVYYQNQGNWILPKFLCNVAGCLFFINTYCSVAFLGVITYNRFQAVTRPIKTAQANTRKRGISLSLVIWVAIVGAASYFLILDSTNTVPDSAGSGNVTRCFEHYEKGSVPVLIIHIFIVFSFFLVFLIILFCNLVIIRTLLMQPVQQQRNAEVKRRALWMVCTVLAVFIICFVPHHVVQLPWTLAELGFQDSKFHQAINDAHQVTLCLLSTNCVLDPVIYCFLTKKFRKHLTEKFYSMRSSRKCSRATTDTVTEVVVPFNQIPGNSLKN
run_description: biochemical
Assay type: tissue-based
applied_conditions: platelet
quantity_measured: IC50

{"compound": "O=c1n(CCCN2CCN(c3cccc(Cl)c3)CC2)nc2ccccn12 [TRAZODONE]", "quantity_measured": "IC50", "result": "Not Active"}
{"compound": "CC(C)OC(=O)C(C)(C)Oc1ccc(C(=O)c2ccc(Cl)cc2)cc1 [FENOFIBRATE]", "quantity_measured": "IC50", "result": "Not Active"}
{"compound": "C[C@]12C/C(=C/O)C(=O)C[C@@H]1CC[C@@H]1[C@@H]2CC[C@@]2(C)[C@H]1CC[C@]2(C)O [OXYMETHOLONE]", "quantity_measured": "IC50", "result": "Not Active"}
{"compound": "NC(=O)N1c2ccccc2C=Cc2ccccc21 [CARBAMAZEPINE]", "quantity_measured": "IC50", "result": "Not Active"}

###

tested_system: UniProt:P03372
Sequence (P03372 whole entry): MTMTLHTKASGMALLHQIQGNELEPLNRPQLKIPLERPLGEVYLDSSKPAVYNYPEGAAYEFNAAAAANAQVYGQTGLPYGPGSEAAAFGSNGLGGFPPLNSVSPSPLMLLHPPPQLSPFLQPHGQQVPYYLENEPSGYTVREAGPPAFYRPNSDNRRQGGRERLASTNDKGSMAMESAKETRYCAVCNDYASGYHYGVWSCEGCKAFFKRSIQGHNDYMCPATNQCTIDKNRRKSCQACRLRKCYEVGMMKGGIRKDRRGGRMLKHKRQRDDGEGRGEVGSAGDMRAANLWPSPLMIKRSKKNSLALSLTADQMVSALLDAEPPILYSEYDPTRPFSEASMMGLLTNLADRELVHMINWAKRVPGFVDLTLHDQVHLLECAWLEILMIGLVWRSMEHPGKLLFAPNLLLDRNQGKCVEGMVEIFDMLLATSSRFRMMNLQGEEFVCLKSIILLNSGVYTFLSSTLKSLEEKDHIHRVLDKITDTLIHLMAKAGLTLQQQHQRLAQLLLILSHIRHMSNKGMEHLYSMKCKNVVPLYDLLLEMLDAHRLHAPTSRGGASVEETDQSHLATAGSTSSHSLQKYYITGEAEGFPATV
applied_conditions: sf9
quantity_measured: IC50

{"molecule": "CN[C@@H]1[C@H](O)[C@H](NC)[C@H]2O[C@@]3(O)C(=O)C[C@@H](C)O[C@H]3O[C@@H]2[C@H]1O [SPECTINOMYCIN]", "result": "Not Active"}
{"molecule": "CC(C)(CO)C(O)C(=O)NCCCO (stereo not drawn) [PANTHENOL]", "result": "Not Active"}
{"molecule": "CC[C@H]1OC(=O)[C@H](C)[C@@H](O[C@H]2C[C@@](C)(OC)[C@@H](O)[C@H](C)O2)[C@H](C)[C@@H](O[C@@H]2O[C@H](C)C[C@H](N(C)C)[C@H]2O)[C@](C)(OC)C[C@@H](C)C(=O)[C@H](C)[C@@H](O)[C@]1(C)O [CLARITHROMYCIN]", "result": "Not Active"}

###

tested_system: Alpha-2C adrenergic receptor (Homo sapiens)
Sequence (P18825 whole entry): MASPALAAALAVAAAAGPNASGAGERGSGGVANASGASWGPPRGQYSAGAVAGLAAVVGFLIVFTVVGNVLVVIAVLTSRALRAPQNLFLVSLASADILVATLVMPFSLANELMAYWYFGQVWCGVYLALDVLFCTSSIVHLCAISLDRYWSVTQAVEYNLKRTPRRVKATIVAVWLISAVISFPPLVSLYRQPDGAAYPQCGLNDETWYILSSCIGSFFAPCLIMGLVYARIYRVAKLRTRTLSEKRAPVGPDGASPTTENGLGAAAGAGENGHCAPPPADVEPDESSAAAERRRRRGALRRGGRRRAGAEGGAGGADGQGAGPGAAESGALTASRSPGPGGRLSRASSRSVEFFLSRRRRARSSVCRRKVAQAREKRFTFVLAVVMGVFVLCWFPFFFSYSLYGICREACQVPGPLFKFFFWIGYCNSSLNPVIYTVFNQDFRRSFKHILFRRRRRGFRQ
run_description: DRUGMATRIX: Adrenergic Alpha-2C radioligand binding (ligand: [3H] MK-912)
Format: cell membranes, Sf9, Membrane
applied_conditions: read-out: Ki
quantity_measured: pKi
Quick note: pKi values are minus log10 of concentrations in mol/L.

Q) Given the entry C[C@@H]1C[C@H]2[C@@H]3CCC4=CC(=O)C=C[C@]4(C)C3=CC[C@]2(C)[C@H]1C(=O)CN1CCN(c2cc(N3CCCC3)nc(N3CCCC3)n2)CC1 , what pKi was observed with Alpha-2C adrenergic receptor (Homo sapiens)?
A) 5.94

Q) Find the measured pKi: item C#C[C@]1(O)CC[C@H]2[C@@H]3CCC4=Cc5oncc5C[C@]4(C)[C@H]3CC[C@@]21C , target or system Alpha-2C adrenergic receptor (Homo sapiens).
A) 5.46

###

tested_system: Alpha-1A adrenergic receptor (Rattus norvegicus, UniProt P43140)
Sequence (P43140 whole entry): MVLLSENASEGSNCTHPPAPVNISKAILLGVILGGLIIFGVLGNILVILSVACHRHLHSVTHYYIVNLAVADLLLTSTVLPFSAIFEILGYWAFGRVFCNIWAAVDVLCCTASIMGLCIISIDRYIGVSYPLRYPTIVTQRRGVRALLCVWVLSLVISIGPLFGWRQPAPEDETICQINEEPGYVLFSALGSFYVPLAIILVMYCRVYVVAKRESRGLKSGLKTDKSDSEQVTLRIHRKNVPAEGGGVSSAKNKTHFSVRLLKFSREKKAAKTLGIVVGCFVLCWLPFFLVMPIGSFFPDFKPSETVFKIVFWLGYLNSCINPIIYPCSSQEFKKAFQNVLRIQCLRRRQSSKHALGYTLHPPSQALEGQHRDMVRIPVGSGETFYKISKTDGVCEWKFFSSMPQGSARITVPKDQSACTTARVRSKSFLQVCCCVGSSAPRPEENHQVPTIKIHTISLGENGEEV
run_description: DRUGMATRIX: Alpha-1A adrenergic receptor radioligand binding (ligand: prazosin)
Format: cell membranes, Wistar, Submaxillary gland, Membrane
applied_conditions: Not Active = under 50% inhibition at 10 µM
quantity_measured: IC50

{"compound": "CC(C(=O)O)c1ccc(-c2ccccc2)c(F)c1 (stereo unspecified) [FLURBIPROFEN]", "IC50": "Not Active"}
{"compound": "CNS(=O)(=O)Cc1ccc2[nH]cc(CCN(C)C)c2c1", "IC50": "Not Active"}
{"compound": "C[C@H]([C@](O)(Cn1cncn1)c1ccc(F)cc1F)S(C)(=O)=O [GENACONAZOLE]", "IC50": "Not Active"}
{"compound": "CCOC(=O)[C@H](CCc1ccccc1)N[C@@H](C)C(=O)N1Cc2ccccc2C[C@H]1C(=O)O", "IC50": "Not Active"}
{"compound": "Cc1cccc(Nc2cc(Cl)nc(SCC(=O)O)n2)c1C [PIRINIXIC ACID]", "IC50": "Not Active"}

The record that follows has no IC50 shown yet.
Q) Entry Nc1nc2c(c(=O)[nH]1)N(C=O)C(CNc1ccc(C(=O)N[C@@H](CCC(=O)O)C(=O)O)cc1)CN2 (stereo partly specified) [LEUCOVORIN] , system Alpha-1A adrenergic receptor (Rattus norvegicus, UniProt P43140): what IC50 was measured?
A) Not Active
